# test: protein stability index of a GFP-peptide fusion (yeast GPS) (PSI 1-4); higher = more stable; sorted into four equal gates, so the index is relative within each strain
# experimental-context: doa10∆
Threshold check on protein stability index: at or above 3 gives condition met, strictly below gives condition not met.

Consider the following illustrative entries.
polymer-sequence: MDRTSLRKQYSAIDEEI [SMC3]
qualitative-label: condition not met

polymer-sequence: STTAALQSISSLTISLY [RPN7]
qualitative-label: condition not met

Exam item: decide whether the reported protein stability index for MNFNTPQQNKTPFSFGT [YJL041W/NSP1] is at least 3.
condition met

----------
# test: protein stability index of a GFP-peptide fusion (yeast GPS) (PSI 1-4); higher = more stable; sorted into four equal gates, so the index is relative within each strain
# experimental-context: doa10∆
parameter-measured: protein stability index
Write the number on its own, no unit after it.

polymer-sequence: SIKDTQNVGQGKLQRKE [BRN1]
protein stability index: 1.96

polymer-sequence: EKFSEKMLKIWTMAFRT [ECM29]
protein stability index: 2

polymer-sequence: VPYVVTHDGRTIRYPDP [RPS4A]
protein stability index: 3.08

polymer-sequence: AQTIGRNSKTVREFLEK [PRE6]
protein stability index: 2.76

polymer-sequence: MAPNTSRKQKVIKTLTV [RPL22B]
protein stability index: 2.1

polymer-sequence: FTVNVLYPDSSSFKKNL [RPN3]
protein stability index: 2.08

Input SEPIKEIIDNWEKYEQS [FAS1] , output reported protein stability index.
2.88

Indicate the recorded protein stability index value for this sequence: TEIISTLSNGLIASHYG [BRR2]
2.55

Look up protein stability index of NLLESITKLLEINLSKI [YCS4] and report it.
2.73
